assay: Human HepG2 cell viability assay in 384 well format; format: toxicity, cell-based; parameters: dose 125 nL, time 70.5 hour; concentration not given beside the values; conditions: HepG2 cells, read-out: Inhibition
What cytotoxicity at 70.5 h was measured for each of the following?
API: value field is a number in %; no unit string.

# get_value(readout='cytotoxicity at 70.5 h', item= O=C(c1cc2c(s1)CCCC2)N1CCc2nc(C3CCCN3)ncc2C1 (stereo unspecified) )
6.76

# get_value(readout='cytotoxicity at 70.5 h', item= CN(C)CC(=O)N1CCC2(CC1)CN(c1ncccn1)CCO2 )
5.39

# get_value(readout='cytotoxicity at 70.5 h', item= CC1CCN(CC2CCCN(C(=O)Nc3ccccn3)C2)CC1 (stereo unspecified) )
-7.54

# get_value(readout='cytotoxicity at 70.5 h', item= FC(F)(F)c1cc(C2CCCN(Cc3ccncc3)C2)n[nH]1 (stereo unspecified) )
-1.55

# get_value(readout='cytotoxicity at 70.5 h', item= CCC(C)(COc1ncccc1Cl)NCC(=O)Nc1ccc(Br)cn1 (stereo unspecified) )
38.6

# get_value(readout='cytotoxicity at 70.5 h', item= COc1ccc(CCN2CCCC2Cn2nc(C)nc2C)cc1 (stereo unspecified) )
17.7

# get_value(readout='cytotoxicity at 70.5 h', item= Cn1nnc2cc(C(=O)N3CCCC3Cc3ccccc3)ccc21 (stereo unspecified) )
-1.35

# get_value(readout='cytotoxicity at 70.5 h', item= O=C(c1coc2ccccc12)N1CCCC(O)(CO)CC1 (stereo unspecified) )
-7.66

# get_value(readout='cytotoxicity at 70.5 h', item= c1cc2nc(C3CCN(CC4CC4)CC3)nn2cc1N1CCCC1 )
-4.49

# get_value(readout='cytotoxicity at 70.5 h', item= CCCN1CCCC2(CCN(S(=O)(=O)c3cc(C)nn3CC)C2)C1=O (stereo unspecified) )
-21.6

# get_value(readout='cytotoxicity at 70.5 h', item= Cc1cccc(CN2CCC(Cc3ccccc3F)CC2)n1 )
0.263

# get_value(readout='cytotoxicity at 70.5 h', item= CSCC(CCO)Nc1nc(C(F)F)nc2ccccc12 (stereo unspecified) )
-7.1

# get_value(readout='cytotoxicity at 70.5 h', item= CC(C)NC(=O)N1CCC2(CCC(=O)N2CCN2CCCC2)CC1 )
-9.28

# get_value(readout='cytotoxicity at 70.5 h', item= Cc1nc(C(C)C)sc1C(=O)N1CCC(C(N)=O)CC1 )
6

# get_value(readout='cytotoxicity at 70.5 h', item= O=C(COc1cccc2c1CCC2=O)NCCc1cccs1 )
12.1

# get_value(readout='cytotoxicity at 70.5 h', item= CNc1ncc(C(=O)N2CCC(c3ccccc3C(=O)O)C2)cn1 (stereo unspecified) )
-5.85

# get_value(readout='cytotoxicity at 70.5 h', item= CN(CC1(CO)CCCC1)c1nc2c(c(=O)[nH]1)Cc1ccccc1OC2 )
-10

# get_value(readout='cytotoxicity at 70.5 h', item= c1ccc(C(NCc2nnc(-c3ccco3)o2)C2CCC2)cc1 (stereo unspecified) )
-14.7

# get_value(readout='cytotoxicity at 70.5 h', item= NCc1ccc(Oc2cccc(Cl)c2Cl)cc1 )
14.7

# get_value(readout='cytotoxicity at 70.5 h', item= COc1ccccc1OC1CCN(C(=O)c2cccc(O)c2C)CC1 )
-4.78

# get_value(readout='cytotoxicity at 70.5 h', item= CCN(C)S(=O)(=O)N1CCCC(c2cccc(C(=O)O)c2)C1 (stereo unspecified) )
-8.54

# get_value(readout='cytotoxicity at 70.5 h', item= CSc1ccc(OCCN2CCNC(=O)CC2)cc1 )
-7.88

# get_value(readout='cytotoxicity at 70.5 h', item= Cc1cccc(-c2nc(CN3CC(n4nc(C)cc4C)C3)no2)c1 )
-4.09

# get_value(readout='cytotoxicity at 70.5 h', item= Cn1cnnc1C1CCN(C(=O)CCCOc2ccccc2)CC1 )
-0.661

# get_value(readout='cytotoxicity at 70.5 h', item= CCNC(=O)NCc1ccc(CN2CCCC(C)C2)cc1 (stereo unspecified) )
-0.573

# get_value(readout='cytotoxicity at 70.5 h', item= COc1cc(C2Nc3cc(Cl)ccc3C3=NCCN32)cc(OC)c1OC (stereo unspecified) )
13.6

# get_value(readout='cytotoxicity at 70.5 h', item= Cc1nn(CCNS(=O)(=O)c2ccccc2)c(C)c1Cl )
-7.1

# get_value(readout='cytotoxicity at 70.5 h', item= CC(NC(=O)NCCCN(C)S(C)(=O)=O)c1ccc(Cl)cc1 (stereo unspecified) )
-7.7

# get_value(readout='cytotoxicity at 70.5 h', item= COC(=O)c1cc(OCC2CCC2)cc(C(=O)N[C@H]2CC[C@H](O)CC2)c1 )
15.3

# get_value(readout='cytotoxicity at 70.5 h', item= CNc1nc(CNC(=O)Nc2ccc(OC(C)C)cc2C)cs1 )
-2.53

# get_value(readout='cytotoxicity at 70.5 h', item= CCCc1nnc(N(C)CC2CCN(CC(C)C)C2)o1 (stereo unspecified) )
-1.56

# get_value(readout='cytotoxicity at 70.5 h', item= OC1(CN2CCCCC2)CCN(c2cc(C(F)(F)F)ccn2)C1 (stereo unspecified) )
-22.3

# get_value(readout='cytotoxicity at 70.5 h', item= N#Cc1ccc(CN2CCC(c3ccnn3CCO)CC2)cc1 )
-2.2

# get_value(readout='cytotoxicity at 70.5 h', item= O=C(NCCNc1cc(-n2cccc2)ncn1)c1cccs1 )
-4.09

# get_value(readout='cytotoxicity at 70.5 h', item= O=C1CN(Cc2cn(CC3CCCN(C4CCSCC4)C3)nn2)CCN1 (stereo unspecified) )
16.1

# get_value(readout='cytotoxicity at 70.5 h', item= CC(C)(C)c1cnc(CN2CCCCC2Cn2cccn2)o1 (stereo unspecified) )
18.8

# get_value(readout='cytotoxicity at 70.5 h', item= Cc1nn(C)c(=O)c2nn(-c3ccc(F)cc3)c(C)c12 )
-8.42

# get_value(readout='cytotoxicity at 70.5 h', item= CC(NC(=O)NCCN1CCCC1)c1nncn1C (stereo unspecified) )
-8.29

# get_value(readout='cytotoxicity at 70.5 h', item= Cc1ccc(NCCCNc2nccc(-c3cn(C)nc3C)n2)nc1 )
13.9

# get_value(readout='cytotoxicity at 70.5 h', item= CC1(C)Cc2ccccc2-c2nc(NCCCO)[nH]c(=O)c21 )
-3.41

# get_value(readout='cytotoxicity at 70.5 h', item= Cc1nn(C)c(N2CCOCC2)c1CNCc1cscn1 )
-9.09

Ref: ChEMBL document CHEMBL3507680
